target: Phosphatidylinositol 4,5-bisphosphate 3-kinase catalytic subunit gamma isoform (Homo sapiens, UniProt P48736)
Sequence (P48736 whole entry, canonical isoform): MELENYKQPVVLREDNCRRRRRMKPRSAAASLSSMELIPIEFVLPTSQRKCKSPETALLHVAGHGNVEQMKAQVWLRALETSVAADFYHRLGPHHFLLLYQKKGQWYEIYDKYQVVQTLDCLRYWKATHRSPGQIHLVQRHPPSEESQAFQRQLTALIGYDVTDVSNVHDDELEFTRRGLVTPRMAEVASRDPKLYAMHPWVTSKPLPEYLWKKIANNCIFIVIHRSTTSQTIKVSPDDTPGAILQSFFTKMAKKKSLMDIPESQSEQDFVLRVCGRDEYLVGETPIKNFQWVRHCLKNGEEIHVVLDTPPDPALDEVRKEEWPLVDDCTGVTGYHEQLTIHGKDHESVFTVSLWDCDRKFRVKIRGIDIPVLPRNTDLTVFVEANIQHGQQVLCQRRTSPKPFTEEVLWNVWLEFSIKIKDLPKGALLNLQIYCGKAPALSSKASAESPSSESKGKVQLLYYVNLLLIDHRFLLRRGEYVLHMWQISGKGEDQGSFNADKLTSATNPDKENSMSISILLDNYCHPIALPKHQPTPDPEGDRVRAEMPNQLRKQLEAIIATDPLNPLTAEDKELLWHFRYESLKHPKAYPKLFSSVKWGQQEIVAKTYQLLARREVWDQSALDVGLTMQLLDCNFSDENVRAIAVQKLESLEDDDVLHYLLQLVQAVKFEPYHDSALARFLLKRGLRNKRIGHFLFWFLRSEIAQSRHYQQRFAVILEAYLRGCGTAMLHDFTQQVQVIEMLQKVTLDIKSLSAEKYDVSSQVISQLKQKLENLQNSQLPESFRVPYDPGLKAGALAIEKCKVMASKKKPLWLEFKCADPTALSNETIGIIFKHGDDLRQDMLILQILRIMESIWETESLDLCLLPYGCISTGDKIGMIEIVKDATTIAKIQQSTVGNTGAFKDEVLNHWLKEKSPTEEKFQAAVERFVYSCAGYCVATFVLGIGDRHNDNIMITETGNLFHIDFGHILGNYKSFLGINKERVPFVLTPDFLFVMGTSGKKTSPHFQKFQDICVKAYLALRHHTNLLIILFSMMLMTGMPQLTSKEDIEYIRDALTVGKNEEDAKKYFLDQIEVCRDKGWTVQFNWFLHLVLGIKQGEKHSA
Give measured pIC50 for each item. Keep answers brief.
pIC50 is defined as minus the log10 of a concentration measured in mol/L.

Query :: Return reported pIC50; argument: CC(=O)Nc1cn2nc(-c3cc(C)c4c(c3)CN([C@@H](C)C3CC3)C4=O)ccc2n1
Result :: 6.35

Query :: Then what about the compound Cc1cc(-c2ccn3nc(N)c(-c4cnn(CCO)c4)c3n2)cc2c1C(=O)N([C@@H](C)C1CC1)C2 ?
Result :: 6.40

Query :: Same question, Cc1nn(C)cc1-c1c(N)nn2ccc(-c3cc4c(c(C(F)(F)F)c3)C(=O)N([C@@H](C)C3CC3)C4)nc12 this time
Result :: 6.33

Query :: Another compound: Cc1cc(-c2ccn3nc(N)cc3n2)cc2c1C(=O)N([C@@H](C)C1CC1)C2
Result :: 5.38

Query :: Another compound to check: Cc1cc(-c2ccc3nc(N)c(-c4cnn(C)c4)n3n2)cc2c1C(=O)N([C@@H](C)C1CC1)C2
Result :: 6.31

Query :: Let us now turn to CCC(=O)Nc1cn2nc(-c3cc(C)c4c(c3)CN([C@@H](C)C3CC3)C4=O)ccc2n1
Result :: 6.08

Query :: What do we get for COCC(=O)Nc1cn2nc(-c3cc(C)c4c(c3)CN([C@@H](C)C3CC3)C4=O)ccc2n1 ?
Result :: 6.16

Query :: Try this compound next: C[C@@H](C1CC1)N1Cc2cc(-c3ccn4nc(N)c(-c5cnn(C)c5)c4n3)cc(C(F)(F)F)c2C1=O
Result :: 7.19

Query :: Follow-up item: Cc1ncc(-c2c(N)nn3ccc(-c4cc(C)c5c(c4)CN([C@@H](C)C4CC4)C5=O)nc23)o1
Result :: 6.64

Query :: Record: Cc1cc(-c2ccc3nc(N)nn3c2)cc2c1C(=O)N([C@@H](C)C1CC1)C2 (racemic)
Result :: 4.82

====

biological target: Phosphatidylinositol 4,5-bisphosphate 3-kinase catalytic subunit gamma isoform (Homo sapiens, UniProt P48736)
parameter: IC50 (nM)
Provide the reading as a plain figure in nM.

Query :: Which measured IC50 value corresponds to Cc1cc(-c2ccc3nc(NC(=O)c4ccccc4)cn3n2)cc2c1C(=O)N([C@@H](C)C1CC1)C2 ?
Result :: 12000

Query :: And then Cc1c(-c2c(N)nn3ccc(-c4cc5c(c(C(F)(F)F)c4)C(=O)N([C@@H](C)C4CC4)C5)nc23)cnn1C , what is it?
Result :: 440

Query :: Again, but for CC(=O)Nc1cc2nc(-c3cc4c(c(C(F)(F)F)c3)C(=O)N([C@@H](C)C3CC3)C4)ccn2n1
Result :: 150

Query :: Another: CNS(=O)(=O)c1cc(-c2ccn3nc(NC(C)=O)cc3n2)cc2c1C(=O)N([C@@H](C)C1CC1)C2
Result :: 240

Query :: Repeat with CC(C)c1cc(-c2cnn3ccc(-c4cc5c(c(C(F)(F)F)c4)C(=O)N([C@@H](C)C4CC4)C5)nc23)ccc1C(=O)O
Result :: 74

Query :: Note, next up: C[C@@H](C1CC1)N1Cc2cc(-c3ccn4nc(N)c(-c5ncccn5)c4n3)cc(C(F)(F)F)c2C1=O
Result :: 800

Query :: Now the same for Cc1cc(-c2ccn3nc(N)c(-c4ccn[nH]4)c3n2)cc2c1C(=O)N([C@@H](C)C1CC1)C2
Result :: 620
